Values were extracted from ChEMBL document CHEMBL4513216.

test: Toxicity liver stage against HepG2, at 10uM; format: cell-based; design: test concentration 10 uM, cell line HepG2-A16-CD81EGFP; details: human, HepG2-A16-CD81EGFP cells; read-out: INHIBITION

| MOLECULE | cytotoxicity at 10 µM (%) |
| --- | --- |
| Cn1cnc(S(=O)(=O)N2CCN(Cc3ccco3)CC2)c1Cl | -3.85 |
| COCc1noc(-c2nn(-c3ccc(F)c(F)c3)c3c2CCC3)n1 | -2.75 |
| CNC(=O)CNC1CC2(CCN(c3ncccn3)CC2)c2ccccc21 (stereo not given) | 4.68 |
| Cc1noc(-c2ccc(N[C@H]3CCCCNC3=O)nc2)n1 | 0.913 |
| Cc1ccccc1-c1noc(CN2CCc3nn(C)c(=O)cc3C2)n1 | -12.5 |
| O=C(NCC(=O)N1CCCc2ccccc21)c1c(O)cc(F)cc1F | 28.6 |
| Cn1cccc1-c1cc(C(=O)NCCc2nnc(N)s2)[nH]n1 | -7.22 |
| CC(C)n1ccnc1C1CCCN(c2ncccc2C(N)=O)C1 (stereo not given) | -9.53 |
| CC(C)NC(=O)C1CN(C(=O)N(C)C)CC12CCOCC2 (stereo not given) | -110 |
| NC1CCCCN(Cc2cc(-c3ccccc3OC(F)(F)F)no2)C1 (stereo not given) | -4.52 |
| Nc1nccc(C2CCN(CC3CC3)C2)n1 (stereo not given) | 8.54 |
| CCOCC1CCN(C(=O)C(c2cccc(F)c2)N(C)C)CC1 (stereo not given) | -4.57 |
| CCOCC1CN(Cc2cnn(C)c2)Cc2nn(CC3CC3)cc21 (stereo not given) | -75.9 |
| CN1C(=O)CCCC12CCCN(Cc1cccs1)C2 (stereo not given) | -0.302 |
| O=C(Nc1ccccc1C(=O)N1CCCC1)NC1CCOCC1 | -3.27 |
| CC(C)CNc1c(NCc2ccco2)c(=O)c1=O | -10.6 |
| Cc1ncsc1CN1C[C@H](OCC(C)C)[C@H]2OCCC[C@H]21 | -140 |
| Cn1cc(NS(=O)(=O)c2ccc3c(c2)CCCC3)ccc1=O | 40.7 |
| CSc1cccc(CN2CCC(CCC(=O)NCCN(C)C)CC2)c1 | -11.9 |
| Cc1noc(C(C)C)c1C(=O)NCc1ccc2c(c1)OCCO2 | 3.24 |
| O=C(NC1CC1)C1(Cc2ccccc2-c2ccncc2)CCOCC1 | -3.83 |
| COCCN(Cc1cnn(C)c1)CC1CCOC1 (stereo not given) | -8.52 |
| CC1c2ncc(Cn3cccn3)n2CCN1Cc1cccnc1 (stereo not given) | 6.49 |
| CC1CCN(C(CNC(=O)Cn2cccn2)c2cccs2)CC1 (stereo not given) | -16 |
| CCNC(=O)CN(CC)S(=O)(=O)c1c(Br)cc2[nH]c(=O)oc2c1Cl | 9.69 |

====

cytotoxicity at 10 µM reference
assay: Toxicity liver stage against HepG2, at 10uM; assay type: cell-based; set-up: test concentration 10 uM, cell line HepG2-A16-CD81EGFP; settings: human, HepG2-A16-CD81EGFP cells; read-out: INHIBITION

| MOLECULE | cytotoxicity at 10 µM [%] |
| --- | --- |
| COc1ccccc1-n1cc(C(=O)NCCCn2ccnn2)cn1 | -6.01 |
| CS(=O)(=O)N1CCC(c2nnc3ccc(C(=O)N4CCCC4)cn23)C1 (stereo not drawn) | 1.47 |
| CC(C)N1CC(C(=O)N2CCN(CCn3cccc3)CC2)CC1=O (stereo not drawn) | -4.97 |
| O=C(C1CCOC1)N1CCN(CC(F)(F)F)c2ccccc21 (stereo not drawn) | -5.74 |
| CC(CNC(=O)CCc1ccco1)N1CCc2sccc2C1 (stereo not drawn) | 4.35 |
| CC(C)(NC(=O)CCc1ccco1)c1ccc2c(c1)OCCO2 | 1.44 |
| CN(C)[C@H]1CN(C(=O)CCc2cccc(F)c2)C[C@@H]1C1CC1 | -1.1 |
| COc1cnc(CSc2nnc(C)s2)cc1OCC(=O)NC1CCCC1 | 3.43 |
| CN(c1ccc(CNC(=O)c2c[nH]c(=O)c(Cl)c2)cc1)C1CCCCC1 | 88.9 |
| Cc1noc(C2CCC3(CCN(C(=O)C4CCOCC4)CC3)O2)n1 (stereo not drawn) | 7.16 |
| Cc1cc(NCC(=O)N(C)C)c(C(N)=O)cc1F | -2.64 |
| O=C(Cn1c(=O)oc2ccccc21)NCC1(O)CCc2ccccc2C1 (stereo not drawn) | 5.37 |
| CCOCC1CN(S(C)(=O)=O)Cc2cnn(C)c21 (stereo not drawn) | -15.4 |
| Cc1nc(C2CCCN2CC(=O)NCCc2ccc(Cl)cc2)no1 (stereo not drawn) | 8.52 |
| CCc1ncc2c(n1)CN(c1cc(N3CCN(C)CC3)nc(N)n1)C2 | 22.8 |
| Fc1ccccc1CO[C@@H]1C[C@H]2CN(c3ncccn3)CCN2C1 | 1.09 |
| Cc1nn(C)c(N(C)C)c1CNC1CCc2cc(F)ccc21 (stereo not drawn) | -15.4 |
| Cn1c(CN2CCCc3cc(F)cc(F)c32)cc(=O)n(C)c1=O | 17.3 |
| Cn1cc(C(=O)N2CC[C@@H]3[C@@H]2CCN3Cc2cccc(F)c2)cn1 | -2.21 |
| COc1ccc(CN2CCCn3cnc(COC(C)C)c3C2)cc1 | -74.9 |
| O=C(O)c1cc2c(nc1NCC1CC1)CCN(C1CCOC1)CC2 (stereo not drawn) | 7.83 |
| Cc1csc(CN2CC[C@H]3O[C@H](C(=O)Nc4cccnc4)CC[C@H]32)n1 | -47.1 |
| CCC[C@H]1CN(c2nccc(OC)n2)C[C@@H]1NS(=O)(=O)N(C)C | -140 |

====

assay: Toxicity liver stage against HepG2, at 10uM; type: cell-based; parameters: test concentration 10 uM, cell line HepG2-A16-CD81EGFP; details: human, HepG2-A16-CD81EGFP cells; read-out: INHIBITION
ASSAY READOUT: cytotoxicity at 10 µM

| COMPOUND | ASSAY READOUT | VALUE MEASURED |
| --- | --- | --- |
| COc1c(CNC2CCN(c3ncccn3)CC2)c(C(C)C)nn1C | cytotoxicity at 10 µM | -4.81% |
| CC(C)[C@H]1CN(c2cnccn2)C[C@@H]1NC(=O)C1(C#N)CCOCC1 | cytotoxicity at 10 µM | -6.35% |
| Cc1[nH]c2nc(CNc3cccc(Cl)c3)nn2c(=O)c1C | cytotoxicity at 10 µM | 0.0924% |
| Cc1cccc(CN2CCC3(CC2)CN(c2cccnc2)C(=O)CO3)n1 | cytotoxicity at 10 µM | -96.1% |
| O=C1N(Cc2ccccn2)C[C@H]2CN(C3CCOCC3)CCN12 | cytotoxicity at 10 µM | 7.94% |
| CN(CCNC(=O)Nc1ccncc1)C1CCCCC1 | cytotoxicity at 10 µM | -0.39% |
| CC(C)(C)c1nc2cc(NC(=O)Cn3ccc(=O)[nH]c3=O)ccc2o1 | cytotoxicity at 10 µM | -7.07% |
| Cc1ccc(C(=O)NCCS(C)(=O)=O)c(=O)[nH]1 | cytotoxicity at 10 µM | -9.32% |
| COCCC(=O)N1CC2(CCN(Cc3ccoc3)C2)C1 | cytotoxicity at 10 µM | 8.47% |
| Cn1cccc1CN(C(=O)CC(CC(=O)O)c1cccs1)C1CC1 (configuration not stated) | cytotoxicity at 10 µM | 2.27% |
| CCC(=O)N1CCN(C(=O)Cn2cccn2)CC1 | cytotoxicity at 10 µM | 0.661% |
| Cc1cccc(CNC(Cc2ccsc2)c2nccs2)n1 (configuration not stated) | cytotoxicity at 10 µM | 2.83% |

====

cytotoxicity at 10 µM reference
assay: Toxicity liver stage against HepG2, at 10uM; type: cell-based; parameters: test concentration 10 uM, cell line HepG2-A16-CD81EGFP; conditions: human, HepG2-A16-CD81EGFP cells; read-out: INHIBITION

| MOLECULE | cytotoxicity at 10 µM [%] |
| --- | --- |
| O=c1c2c[nH]c(N3CCC(O)CC3)nc-2cn1Cc1cccc(F)c1 | 20.6 |
| O=C1C(NS(=O)(=O)c2cc(F)cc(F)c2)CCN1Cc1ccccc1 (stereo not drawn) | -10 |
| CC(C)N1CCC2(CCCN(c3nccc(C(F)(F)F)n3)C2)CC1 | 10.9 |
| Cn1cnc2c1C(COCC1CC1)CN(Cc1ccsc1)C2 (stereo not drawn) | -5.07 |
| CC(=O)N1CCOC(c2cc(N3CC(O)C3)nc(C)n2)C1 (stereo not drawn) | 3.16 |
| CCC[C@H]1CN(C(=O)Cn2ccccc2=O)C[C@@H]1NS(C)(=O)=O | 11.1 |
| CN(C)S(=O)(=O)N1CCCC(c2nccn2Cc2cccnc2)C1 (stereo not drawn) | 4.61 |
| N#Cc1ccc(N2CCC(c3nccn3Cc3cscn3)CC2)nc1 | -7.01 |
| CCC[C@H]1CN(S(C)(=O)=O)C[C@@H]1NC(=O)CCCn1ccnc1 | 4.47 |
| Cc1cccc(CN2CCC(NS(C)(=O)=O)CC2)n1 | 9.87 |
| FC(F)(F)C1CCc2nnc(CNCc3cccs3)n2C1 (stereo not drawn) | 2.9 |
| Cc1cccc(C(=O)N2CCn3cc(CN4CCCCC4)nc3C2)n1 | -79 |
| Cc1ncc(S(C)(=O)=O)c(N(C)CCCc2cnn(C)c2)n1 | -1.07 |
| CC(=O)NCCNC(=O)c1nc(C2CC2)n(-c2ccccc2Cl)n1 | 9.74 |
| CCc1[nH]c2c(CNC(=O)C3CCN(C)C3)cc(C)cc2c1C (stereo not drawn) | -7.71 |
| CN(Cc1nnc(-c2cccs2)o1)C(C(N)=O)c1cccc(F)c1 (stereo not drawn) | 13.7 |
| CNC(=O)[C@H]1C[C@@H]2CN(S(=O)(=O)c3ccc(F)cc3)C[C@@H]2N1C | -2.97 |
| Cc1c(C(=O)N(CCN(C)C)Cc2ccccn2)oc2ccccc12 | 14.4 |
| Cc1cc(CN(C)Cc2cc3c(cc2OC(F)F)OCO3)on1 | 0.658 |
| CC(C)c1ccc(NC(=O)Cn2cc(I)cn2)cc1 | 2.77 |
| Cc1ccc(N2C(=O)N[C@@H]3CCN(C(=O)C4CC4)[C@@H]3C2=O)cc1 | 3.85 |
| COc1cccc(C(=O)N2CCOC3(CCCN(C(C)=O)C3)C2)c1 (stereo not drawn) | -68.6 |
| Cc1nc(NCC2CC2)nc2c1COCC21CCN(C)C1 (stereo not drawn) | -0.722 |
